Biological target: MERTK (UniProt Q12866)
Assay: phosphorylation enrichment, bacterial display (enrichment ratio); higher = better substrate or ligand; peptides without Tyr show the background;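 also: 11-residue human phosphosite peptides and single-mutation variants displayed on the E. coli surface, counted by deep sequencing, each peptide's frequency after selection divided by its frequency in the unselected input library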;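 also: frequency after pTyr selection over input frequency; kinase dosed for 20-30% of maximal phosphorylation in three min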
Entries and their phosphorylation enrichment values follow.

SEQ TEXT | phosphorylation enrichment
RPFSPYIIRGM [LRP5_Y1531_R1529S_YF] | 0.494
LICRRYLVMQR [IL3RA_Y328_V323L] | 1.01
TQKLAYMELQQ [CENPF_Y700] | 0.527
QPSALYEDRFL [ASS1_Y83_S79P_YF] | 1.11
IDPFTYTPFGS [CYP3A4_Y432_I431T_YF] | 0.561
EVKEAYMGSVL [ACAT1_Y90_N93S] | 0.463
MTEEQYIKMNR [ARFGEF2_Y797_K794E] | 0.386
TVSQPYSFIEF [SEC22B_Y110_R108Q] | 8.32
WSRAMYPDLGP [STARD8_Y330] | 0.478
RIFDYYSARKA [STOX1_Y858] | 0.582
ENQEIYRKAFD [KPNA1_Y493_Q494R] | 0.393
KKHIPYREHKS [CSNK1G1_Y205] | 1.03
EEAAGYAQESQ [CAMKV_Y491] | 0.325
LLTALYFISRG [KCNH2_Y780] | 3.27
PAGSGYPAYLG [ATP6V1A_Y374_D371G] | 0.442
TESNNYIFKTL [FAM83B_Y637_YF] | 0.664
RTLSEYARRHV [RERE_Y1259_P1262R] | 0.572
PRIHSYRGHLW [VHL_Y112_R107P] | 0.655
LEQQKYTVTID [IKBKB_Y199_V203I] | 0.602

* * *

Biological target: FGFR1 (UniProt P11362)
Sequence (P11362 whole entry, looked up): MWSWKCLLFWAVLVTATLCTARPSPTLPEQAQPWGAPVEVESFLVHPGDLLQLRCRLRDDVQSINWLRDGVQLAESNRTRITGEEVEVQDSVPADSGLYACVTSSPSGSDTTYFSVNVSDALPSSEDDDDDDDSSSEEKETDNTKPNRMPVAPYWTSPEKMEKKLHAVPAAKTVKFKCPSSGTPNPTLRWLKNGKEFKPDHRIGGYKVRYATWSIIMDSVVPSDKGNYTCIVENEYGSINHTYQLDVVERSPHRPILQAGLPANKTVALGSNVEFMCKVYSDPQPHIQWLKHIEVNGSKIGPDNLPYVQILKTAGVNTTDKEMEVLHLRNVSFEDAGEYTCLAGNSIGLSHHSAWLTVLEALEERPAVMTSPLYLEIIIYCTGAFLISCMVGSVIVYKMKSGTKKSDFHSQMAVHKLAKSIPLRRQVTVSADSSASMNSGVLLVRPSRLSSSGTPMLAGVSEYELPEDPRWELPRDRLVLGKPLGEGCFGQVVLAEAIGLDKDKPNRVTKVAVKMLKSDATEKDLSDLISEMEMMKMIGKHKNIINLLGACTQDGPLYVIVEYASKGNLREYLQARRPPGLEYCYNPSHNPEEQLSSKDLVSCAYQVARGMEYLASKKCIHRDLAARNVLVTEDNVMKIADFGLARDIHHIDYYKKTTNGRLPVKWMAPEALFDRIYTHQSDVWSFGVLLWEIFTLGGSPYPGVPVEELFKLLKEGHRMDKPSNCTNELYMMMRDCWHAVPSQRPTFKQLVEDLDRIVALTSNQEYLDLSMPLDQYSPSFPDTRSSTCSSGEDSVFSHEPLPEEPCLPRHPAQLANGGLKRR
Assay: phosphorylation enrichment, bacterial display (enrichment ratio); higher = better substrate or ligand; peptides without Tyr show the background
Use YES when the recorded phosphorylation enrichment is no lower than 0.5; use NO when it is lower.

SEQ TEXT | QUALITATIVE LABEL
GPQGFYSNKLV [PTPN14_Y506_V505F] | NO
RIFDYYSARKA [STOX1_Y858] | YES
CTTIHYMFMCN [TP53_Y234_N235M_YF] | YES
FNSLPYQVPTS [CALCOCO2_Y358] | NO
MSPPGYKLVTG [GJA1_Y286] | NO
GAAMLYFPSVS [GPR143_Y177_YF] | YES
NGVSFYINLCQ [IGF2R_Y2025_YF] | YES
DVLVEYQGEGR [GNS_Y416] | YES
TACNPYKPPGP | NO
KGSEGYLAATY [NF1_Y2503] | NO
LERYIYNREEL [HLA-DPB1_Y59_F64L] | NO
SLMNQYVNKKF [RAB7A_Y28] | NO
GFVEDYRPPFF [ACVRL1_Y421_I417F_YF] | YES
PIAPVYAPSMV [ACAT1_Y331_A333P] | YES
MDNQEYKDAFT [BRDT_Y331_K336T_YF] | YES
TMKSRYMELFD [BBS2_Y644_YF] | NO
IEPGIYIPEDD [XPNPEP3_Y455] | YES
PYGQWYESHYA [RPS8_Y113_R110G] | YES
FGMSTYITRED [FNDC3B_Y180_YF] | YES
HAVYIYDICHV [TWNK_Y508_V507I] | YES
ELTAKYLNFFR [P3H4_Y181_Q186R_YF] | NO

* * *

Target: Fes (UniProt P07332)
Sequence (P07332 whole entry, looked up): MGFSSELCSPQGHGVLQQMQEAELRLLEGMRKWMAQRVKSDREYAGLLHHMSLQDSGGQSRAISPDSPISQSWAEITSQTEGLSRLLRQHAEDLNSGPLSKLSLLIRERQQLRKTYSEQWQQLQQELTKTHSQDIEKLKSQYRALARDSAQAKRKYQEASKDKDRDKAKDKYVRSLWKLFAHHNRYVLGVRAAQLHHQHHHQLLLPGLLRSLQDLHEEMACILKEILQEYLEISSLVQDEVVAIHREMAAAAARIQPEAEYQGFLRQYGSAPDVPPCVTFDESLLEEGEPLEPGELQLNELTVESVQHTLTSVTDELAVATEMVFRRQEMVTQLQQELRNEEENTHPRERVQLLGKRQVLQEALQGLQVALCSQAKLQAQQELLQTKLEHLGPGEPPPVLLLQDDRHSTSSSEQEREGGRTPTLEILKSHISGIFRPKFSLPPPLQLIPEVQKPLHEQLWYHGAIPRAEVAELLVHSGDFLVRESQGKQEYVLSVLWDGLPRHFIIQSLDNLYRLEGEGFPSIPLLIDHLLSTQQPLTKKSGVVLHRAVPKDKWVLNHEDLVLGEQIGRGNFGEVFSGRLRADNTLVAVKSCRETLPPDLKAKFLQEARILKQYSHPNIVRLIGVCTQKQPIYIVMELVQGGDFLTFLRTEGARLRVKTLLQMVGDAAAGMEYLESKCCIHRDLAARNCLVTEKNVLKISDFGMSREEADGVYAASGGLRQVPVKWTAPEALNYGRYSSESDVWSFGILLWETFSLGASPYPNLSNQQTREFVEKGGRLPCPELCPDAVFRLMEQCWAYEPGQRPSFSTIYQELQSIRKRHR
Assay: phosphorylation enrichment, bacterial display (enrichment ratio); higher = better substrate or ligand; peptides without Tyr show the background
Below, each entry is listed with its recorded phosphorylation enrichment.

SEQ TEXT | phosphorylation enrichment
RFLTRYIFNRE [HLA-DQB1_Y62_V59L_YF] | 1.17
FEEVVYQAMEE [TACC3_Y684] | 1.54
PPPPAYDDVAQ [TNK2_Y635] | 0.993
WEPFGFAVTRC [PTPRT_Y412_Y412F] | 1.48
GESQGYDIMEA [MSH2_Y863_P868A] | 0.883
MKSIKYMDKEI [CCDC60_Y41] | 0.569
CEAMEYPESKQ [BTK_Y511_L512P] | 1.42
NAPNSYGRRLI [CDKN2A_Y44_P48L] | 0.616
NKVKFYIPDMN [NCR1_Y84] | 0.865
WSISFYPQVIM [CTNS_Y143] | 1.33
VYSSDYFSFVL [USP24_Y2138] | 1.35
WAAQRYGRELR [BAD_Y110] | 0.742
HHTNEYEYDEL [TGM1_Y134_D132N] | 1.17
WFQTKYEELQV [KRT6B_Y360_I365V_YF] | 0.94
ADEQIYWQIAA [CSKtide_2014] | 1.56
GLPINYTTRRI [LAMA2_Y2894] | 0.534
RCLKDYGEFEV [GINS1_Y156] | 1.13
NYNPNYCFAGK [ALK_Y1096_D1091N] | 0.879
DNPAKYFILEN [DPP10_Y512_S517N] | 1.2
DGFTDYAEFAK [MCFD2_Y138_I136T_YF] | 1.31
DLNATYRTIQG [U2SURP_Y634] | 0.846

* * *

// phosphorylation enrichment lookup, one value per entry
Target: Hck (UniProt P08631)
Sequence (P08631 whole entry, looked up): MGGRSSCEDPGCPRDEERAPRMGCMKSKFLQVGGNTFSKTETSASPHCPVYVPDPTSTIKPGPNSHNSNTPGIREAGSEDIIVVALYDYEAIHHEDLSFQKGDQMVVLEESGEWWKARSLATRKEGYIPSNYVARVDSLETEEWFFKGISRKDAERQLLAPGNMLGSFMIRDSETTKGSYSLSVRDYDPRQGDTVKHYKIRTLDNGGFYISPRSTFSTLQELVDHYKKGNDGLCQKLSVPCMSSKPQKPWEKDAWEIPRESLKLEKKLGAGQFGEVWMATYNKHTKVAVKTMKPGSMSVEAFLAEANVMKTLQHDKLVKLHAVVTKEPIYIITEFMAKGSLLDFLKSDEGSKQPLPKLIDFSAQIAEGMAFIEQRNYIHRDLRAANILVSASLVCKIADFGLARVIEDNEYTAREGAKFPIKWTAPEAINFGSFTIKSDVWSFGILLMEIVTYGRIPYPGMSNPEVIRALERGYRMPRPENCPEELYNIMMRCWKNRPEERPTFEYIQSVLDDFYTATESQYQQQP
Experiment: phosphorylation enrichment, bacterial display (enrichment ratio); higher = better substrate or ligand; peptides without Tyr show the background

SEQ TEXT | ASSAY SYSTEM | phosphorylation enrichment
QKPLGYFRVNL [GALE_Y104_D103G_YF] | Hck (UniProt P08631) | 0.648
GSRGKYSSGFC [ATM_Y332_R337C] | Hck (UniProt P08631) | 0.431
NFFDTCIKTCL [IQGAP2_Y1445_Y1445C_YF] | Hck (UniProt P08631) | 0.407
CNPLRYPVLMS [OR2T1_Y182] | Hck (UniProt P08631) | 0.518

* * *

Target: Jak2 (UniProt O60674)
Sequence (O60674 whole entry, looked up): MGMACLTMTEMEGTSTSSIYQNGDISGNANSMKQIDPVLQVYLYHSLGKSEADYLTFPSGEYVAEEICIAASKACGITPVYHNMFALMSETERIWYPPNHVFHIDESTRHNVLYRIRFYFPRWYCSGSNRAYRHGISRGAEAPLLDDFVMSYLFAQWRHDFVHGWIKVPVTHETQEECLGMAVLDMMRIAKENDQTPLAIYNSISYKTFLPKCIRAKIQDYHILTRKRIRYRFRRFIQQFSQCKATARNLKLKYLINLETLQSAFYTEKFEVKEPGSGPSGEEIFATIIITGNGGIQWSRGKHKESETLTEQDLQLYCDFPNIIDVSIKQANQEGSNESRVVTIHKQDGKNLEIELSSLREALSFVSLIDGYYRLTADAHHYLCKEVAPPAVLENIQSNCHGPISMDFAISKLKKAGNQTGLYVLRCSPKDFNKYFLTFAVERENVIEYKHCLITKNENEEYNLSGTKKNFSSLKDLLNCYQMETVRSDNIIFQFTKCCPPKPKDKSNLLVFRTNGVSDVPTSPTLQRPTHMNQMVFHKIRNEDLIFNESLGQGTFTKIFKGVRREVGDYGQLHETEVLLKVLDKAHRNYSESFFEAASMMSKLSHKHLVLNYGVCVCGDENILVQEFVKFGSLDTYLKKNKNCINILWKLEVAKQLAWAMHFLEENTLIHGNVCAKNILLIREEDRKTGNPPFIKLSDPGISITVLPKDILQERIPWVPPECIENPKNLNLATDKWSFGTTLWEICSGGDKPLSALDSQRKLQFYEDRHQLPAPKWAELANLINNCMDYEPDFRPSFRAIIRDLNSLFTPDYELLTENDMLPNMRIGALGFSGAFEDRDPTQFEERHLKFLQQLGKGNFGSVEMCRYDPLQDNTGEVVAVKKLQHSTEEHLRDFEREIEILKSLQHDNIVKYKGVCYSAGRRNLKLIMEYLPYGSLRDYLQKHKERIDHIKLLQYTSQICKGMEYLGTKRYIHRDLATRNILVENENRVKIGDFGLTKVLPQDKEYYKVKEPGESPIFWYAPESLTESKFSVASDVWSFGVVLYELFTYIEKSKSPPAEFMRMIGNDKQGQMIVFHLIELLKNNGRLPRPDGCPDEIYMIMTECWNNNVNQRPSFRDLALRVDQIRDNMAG
Test: phosphorylation enrichment, bacterial display (enrichment ratio); higher = better substrate or ligand; peptides without Tyr show the background
Listed sequences paired with reported phosphorylation enrichment
OBSERVED PROPERTY: phosphorylation enrichment

SEQ TEXT | OBSERVED PROPERTY | OBSERVED VALUE
RAIGYYSATSK [FAM120A_Y328] | phosphorylation enrichment | 0.73
FCRHNYGAVES [HLA-DRB1_Y112_V114A_YF] | phosphorylation enrichment | 0.856
QEKKGYFEDRR [GLUL_Y336] | phosphorylation enrichment | 0.628
YKEDPYLVVNP [MCM6_Y810_E806K] | phosphorylation enrichment | 1.03

* * *

Each entry below carries its reported phosphorylation enrichment.
Molecular target: MERTK (UniProt Q12866)
Assay: phosphorylation enrichment, bacterial display (enrichment ratio); higher = better substrate or ligand; peptides without Tyr show the background

SEQ TEXT | phosphorylation enrichment
LARDMYDKEFF [MET_Y1230_YF] | 0.396
DAVKHYMQFQK [CNGA2_Y395_R399Q] | 0.473
NVVNEYSSELE [FGB_Y172] | 0.422
VSFDEYRFRSV [CFTR_Y515_YF] | 0.6
KHMADYPDFKF [SOX11_Y113_YF] | 0.398
GRSTYYWPRPR [GAGE12J_Y10] | 0.748
SVLVPYEPPEV [TP53_Y220_V217L] | 0.463
DGQVNYEGFVQ [CALM1_Y139_E141G] | 0.453
ACVARYIFKRL [LPCAT3_Y348_W344C] | 0.492
SISFDYCRVPM [BST2_Y8_T4I_YF] | 0.547
NPQKSYFILLF [WAS_Y83_R86L_YF] | 0.398

* * *

Biological target: EPHB1 (UniProt P54762)
Sequence (P54762 whole entry, looked up): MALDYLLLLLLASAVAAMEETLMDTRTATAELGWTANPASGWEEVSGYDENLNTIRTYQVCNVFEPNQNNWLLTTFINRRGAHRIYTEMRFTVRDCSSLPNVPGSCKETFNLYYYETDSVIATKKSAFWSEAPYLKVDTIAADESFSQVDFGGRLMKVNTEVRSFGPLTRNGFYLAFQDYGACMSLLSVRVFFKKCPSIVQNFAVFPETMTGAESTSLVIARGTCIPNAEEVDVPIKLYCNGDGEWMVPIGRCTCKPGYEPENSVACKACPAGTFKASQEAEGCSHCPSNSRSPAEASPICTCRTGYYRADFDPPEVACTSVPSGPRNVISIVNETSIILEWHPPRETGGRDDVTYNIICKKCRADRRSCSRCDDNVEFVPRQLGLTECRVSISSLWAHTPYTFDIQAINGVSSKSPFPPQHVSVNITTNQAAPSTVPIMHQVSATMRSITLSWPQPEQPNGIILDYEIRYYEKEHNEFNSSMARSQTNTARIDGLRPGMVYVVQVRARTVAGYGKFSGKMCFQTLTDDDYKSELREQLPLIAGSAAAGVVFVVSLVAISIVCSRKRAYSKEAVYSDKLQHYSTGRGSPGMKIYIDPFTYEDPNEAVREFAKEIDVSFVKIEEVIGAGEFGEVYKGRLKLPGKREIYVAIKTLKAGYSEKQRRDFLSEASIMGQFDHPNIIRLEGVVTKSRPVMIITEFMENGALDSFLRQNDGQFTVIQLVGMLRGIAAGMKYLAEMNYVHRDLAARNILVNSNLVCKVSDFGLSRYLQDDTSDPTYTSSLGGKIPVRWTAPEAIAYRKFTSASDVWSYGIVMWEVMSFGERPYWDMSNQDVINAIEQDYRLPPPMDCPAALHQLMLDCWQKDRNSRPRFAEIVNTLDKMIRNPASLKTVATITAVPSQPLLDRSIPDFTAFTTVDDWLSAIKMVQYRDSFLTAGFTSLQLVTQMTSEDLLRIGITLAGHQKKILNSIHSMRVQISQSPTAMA
Experiment: phosphorylation enrichment, bacterial display (enrichment ratio); higher = better substrate or ligand; peptides without Tyr show the background
// NO strictly below 0.5 in phosphorylation enrichment; YES otherwise

SEQ TEXT | QUALITATIVE LABEL
DTVRIYDDDFF [UBA1_Y560_E557V] | YES
QRRLVYYERGA [RYR1_Y245_G248R] | NO
GIVEEYQLPFF [BMPR1A_Y453_YF] | YES
FDDDDYDMDFV [BLM_Y296_T298M] | YES
SLALFYRNVFH [RBL1_Y792_K794N_YF] | YES
QCTSAHPLQPE [NANS_Y188_Y188H] | YES
GRTPLYMDRQG [AGXT_Y194_G190R] | NO
FKEQGYHRLPP [RIN1_Y681_YF] | YES
NVLPEYKLQAP [KCNH2_Y388_D383N] | YES
DLEKTYNTFRS [B4GALNT2_Y538_A533D_YF] | NO
LKTNWYNNGKD [DNMT3B_Y404_C403W] | NO
SLDLSYFPTSS [EMD_Y181_YF] | NO
KTTILYKLKLG [ARF1_Y35] | NO
KIMVIYDGACQ [VWDE_Y1035_T1032M] | YES
ENQEIYRKAFD [KPNA1_Y493_Q494R] | YES
FSQQTYYPVSN [ABCD1_Y180_R182P] | YES
RVLHNYLVWCV [ECEL1_Y400_R404C] | YES
PRIHSYRGHLW [VHL_Y112_R107P] | YES
TWSPKYTLRSH [STRN3_Y474_N471S] | YES
PVQAAYPKVVA [HBB_Y131_Q132P] | YES
MAYDRYAAICS [OR8H2_Y123_H120Y] | YES
TLKDVCDDGKY [RPS6KA3_Y483_Y483C] | YES
CTTVHYNFMCN [TP53_Y234_I232V_YF] | NO
LSPNMYNSKLW [TARSL2_Y457] | YES
VTGWGYRKLRE [F11_Y521_D526E] | NO
HTVVSYAEVRA [CLOCK_Y378] | YES
RYLKDYGEFEV [GINS1_Y156_C152Y] | YES
GAAMLYFPSVS [GPR143_Y177_YF] | NO
RKPDIYERLAS [MCM4_Y459] | YES
VRTGIYHGGEP [PIK3CA_Y361] | NO
QPSALYEDRFL [ASS1_Y83_S79P_YF] | YES
EALDFCGEVRT [PTEN_Y155_Y155C] | YES
GFPVRYTDVSN [DNMT3B_Y815_H814R] | YES
KLQQWYREHRS [GPI_Y17] | NO
SYCYRYRCAAR [SUMF1_Y344] | NO
RPIEVYLCPEE [E2F3_Y349_G344R] | YES
GVRFIYTIDGS [DCX_Y105_YF] | YES
EAGKVYLKAAM [CBFB_Y96_P100A] | YES
FEDALYTVLHR [UNC13D_Y61_YF] | YES
FPPISYLNAIS [MVD_Y276] | NO

Source listed as the supplement of paper PMC10065799.
